target: UniProt:P51681; assay: Displacement of [125I]-MIP-1 alpha from human C-C chemokine receptor type 5 expressed on CHO cell membranes
Sequence (P51681 whole entry): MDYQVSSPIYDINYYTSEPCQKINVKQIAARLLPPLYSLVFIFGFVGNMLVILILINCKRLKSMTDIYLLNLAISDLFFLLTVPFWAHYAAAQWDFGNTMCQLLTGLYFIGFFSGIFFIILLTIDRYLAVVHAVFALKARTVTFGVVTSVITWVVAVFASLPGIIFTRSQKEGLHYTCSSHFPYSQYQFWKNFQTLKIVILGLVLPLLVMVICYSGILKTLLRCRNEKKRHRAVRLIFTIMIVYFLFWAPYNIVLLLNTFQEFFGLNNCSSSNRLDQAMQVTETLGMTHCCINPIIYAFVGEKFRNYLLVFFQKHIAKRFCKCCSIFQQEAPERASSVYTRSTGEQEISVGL
Measure name: log10 IC50 (log10 of the value in nM)
Values below are the log10 of the recorded IC50, with nM as the unit.

GET log10 IC50 | system: UniProt:P51681 | item: `O=C(O)[C@@H](C1CCCCC1)N1C[C@H](CN2CCC(n3cnc4ccccc4c3=O)CC2)[C@@H](c2ccccc2)C1`
1.08

# assay system UniProt:P51681: give log10 IC50 of `O=C(O)[C@@H](CC1CCC1)N1C[C@H](CN2CCC(c3ncc4ccccn34)CC2)[C@@H](c2cccc(F)c2)C1`
1.11

Print UniProt:P51681 log10 IC50 for `O=C(O)[C@@H](CC1CCC1)N1C[C@H](CN2CCC(c3nnc4ccccn34)CC2)[C@@H](c2ccccc2)C1` .
1.08

GET log10 IC50 | system: UniProt:P51681 | item: `O=C(O)[C@@H](C1CCCCC1)N1C[C@H](CN2CCC(n3c(=O)[nH]c4ccccc43)CC2)[C@@H](c2ccccc2)C1`
1.80

Fill in log10 IC50 for `O=C(O)[C@@H](CC1CCC1)N1C[C@H](CN2CCC(c3cnc4cnccn34)CC2)[C@@H](c2cccc(F)c2)C1` tested with UniProt:P51681.
0.00

System UniProt:P51681. Read-out log10 IC50. Item `O=C(O)[C@@H](C1CCCCC1)N1C[C@H](CN2CCC(n3cnc(=O)c4ccccc43)CC2)[C@@H](c2ccccc2)C1` . Report value.
2.00

Specify log10 IC50 for `O=C(O)[C@@H](C1CCCCC1)N1C[C@H](CN2CCC(n3cnc4ccccc43)CC2)[C@@H](c2ccccc2)C1` , system UniProt:P51681.
0.40

---

Measure name: IC50

Fill in IC50 for `O=C(O)[C@@H](CC1CCC1)N1C[C@H](CN2CCC(c3cnc4ccc(C(F)(F)F)cn34)CC2)[C@@H](c2cccc(F)c2)C1` tested with Voltage-gated inwardly rectifying potassium channel KCNH2 (Homo sapiens, UniProt Q12809).
Sequence (Q12809 whole entry): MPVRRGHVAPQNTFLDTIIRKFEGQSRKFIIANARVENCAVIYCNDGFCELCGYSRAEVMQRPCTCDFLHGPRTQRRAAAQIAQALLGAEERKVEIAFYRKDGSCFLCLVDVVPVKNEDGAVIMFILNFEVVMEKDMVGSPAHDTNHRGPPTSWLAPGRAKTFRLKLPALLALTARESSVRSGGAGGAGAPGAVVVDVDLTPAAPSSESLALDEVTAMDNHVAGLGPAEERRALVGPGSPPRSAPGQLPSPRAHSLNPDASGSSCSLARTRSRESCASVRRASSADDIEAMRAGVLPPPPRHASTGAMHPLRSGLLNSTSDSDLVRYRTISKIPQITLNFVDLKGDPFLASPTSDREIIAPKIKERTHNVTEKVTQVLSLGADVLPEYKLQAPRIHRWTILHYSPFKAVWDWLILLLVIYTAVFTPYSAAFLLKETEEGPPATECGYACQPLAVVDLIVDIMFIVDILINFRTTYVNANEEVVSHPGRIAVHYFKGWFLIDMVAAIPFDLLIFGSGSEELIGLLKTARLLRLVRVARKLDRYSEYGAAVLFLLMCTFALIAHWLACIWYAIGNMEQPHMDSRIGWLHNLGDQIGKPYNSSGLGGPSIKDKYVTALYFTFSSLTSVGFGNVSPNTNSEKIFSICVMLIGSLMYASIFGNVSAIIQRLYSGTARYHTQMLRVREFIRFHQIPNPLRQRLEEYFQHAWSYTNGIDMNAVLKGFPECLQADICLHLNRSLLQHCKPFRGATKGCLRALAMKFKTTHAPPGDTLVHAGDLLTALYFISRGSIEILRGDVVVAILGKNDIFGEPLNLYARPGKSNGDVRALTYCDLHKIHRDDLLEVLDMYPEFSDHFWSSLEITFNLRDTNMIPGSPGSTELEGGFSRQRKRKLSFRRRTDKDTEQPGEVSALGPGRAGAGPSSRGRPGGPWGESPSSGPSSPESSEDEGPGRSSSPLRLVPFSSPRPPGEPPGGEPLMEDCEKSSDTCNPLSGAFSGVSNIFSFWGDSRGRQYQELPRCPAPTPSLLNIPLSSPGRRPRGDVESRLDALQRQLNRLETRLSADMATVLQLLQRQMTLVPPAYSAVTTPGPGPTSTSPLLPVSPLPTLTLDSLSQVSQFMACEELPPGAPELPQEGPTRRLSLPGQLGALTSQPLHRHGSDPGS
< 10 µM

---

test system: Human immunodeficiency virus 1; experiment: Antiinfective activity in HeLa cells against HIV-1(BAL) in the presence of 50% of human serum; assay type: functional; settings: Human immunodeficiency virus 1, HeLa
Please provide measured IC90 for the entries that follow.
Give a bare numeral; the unit nM is implied.

Using the record for `CCc1ccn2c(C3CCN(C[C@H]4CN([C@H](CC5CCC5)C(=O)O)C[C@@H]4c4cccc(F)c4)CC3)cnc2c1` , state its measured IC90.
11

Please supply the value of reported IC90 for the item `O=C(O)[C@@H](CC1CCC1)N1C[C@H](CN2CCC(c3cnc4ccc(F)cn34)CC2)[C@@H](c2cccc(F)c2)C1`
300

For the compound `O=C(O)[C@@H](CC1CCC1)N1C[C@H](CN2CCC(c3cnc4ccc(Cl)cn34)CC2)[C@@H](c2cccc(F)c2)C1` , give its reported IC90.
100

Recall and state the measured IC90 for `O=C(O)[C@@H](CC1CCC1)N1C[C@H](CN2CCC(c3cnc4c(Cl)cc(Cl)cn34)CC2)[C@@H](c2cccc(F)c2)C1` .
300

In one line, give reported IC90 of the entry `O=C(O)[C@@H](CC1CCC1)N1C[C@H](CN2CCC(c3cnc4ccc([N+](=O)[O-])cn34)CC2)[C@@H](c2cccc(F)c2)C1` .
300

Hello, please tell me recorded IC90 for this one: `O=C(O)[C@@H](C1CCCCC1)N1C[C@H](CN2CCC(n3cnc4ccccc43)CC2)[C@@H](c2ccccc2)C1`
100

Return IC90 (reported value) for this compound: `O=C(O)[C@@H](CC1CCC1)N1C[C@H](CN2CCC(c3cn4ccncc4n3)CC2)[C@@H](c2cccc(F)c2)C1`
300

Return reported IC90. Input compound: `O=C(O)[C@@H](CC1CCC1)N1C[C@H](CN2CCC(c3cnc4cnccn34)CC2)[C@@H](c2cccc(F)c2)C1`
100

Note down IC90 recorded for `O=C(O)[C@@H](CC1CCC1)N1C[C@H](CN2CCC(c3cnc4ncccn34)CC2)[C@@H](c2cccc(F)c2)C1`
100

Supply recorded IC90 for `O=C(O)[C@@H](C1CCCCC1)N1C[C@H](CN2CCC(CCCn3cnc4ccccc43)CC2)[C@@H](c2ccccc2)C1` here.
33

Answer with the recorded IC90 for the compound listed here: `O=C(O)[C@@H](CC1CCC1)N1C[C@H](CN2CCC(c3cnc4ccc(-c5ccccc5)cn34)CC2)[C@@H](c2cccc(F)c2)C1`
300

Please look at this compound and report its IC90: `O=C(O)[C@@H](CC1CCC1)N1C[C@H](CN2CCC(c3cnc4ccccn34)CC2)[C@@H](c2cccc(F)c2)C1`
33

// Input: `O=C(O)[C@@H](CC1CCC1)N1C[C@H](CN2CCC(c3cnc4cccnn34)CC2)[C@@H](c2cccc(F)c2)C1` . Output its IC90 only.
300

Give the measured IC90 for `O=C(O)[C@@H](CC1CCC1)N1C[C@H](CN2CCC(c3cnc4ccc(C(F)(F)F)cn34)CC2)[C@@H](c2cccc(F)c2)C1`
300
